Biological target: T1, CD5 antigen (Octet affinity determination, Example 8) (UniProt P06127 25-372, limits assumed)
T1 sequence (looked up): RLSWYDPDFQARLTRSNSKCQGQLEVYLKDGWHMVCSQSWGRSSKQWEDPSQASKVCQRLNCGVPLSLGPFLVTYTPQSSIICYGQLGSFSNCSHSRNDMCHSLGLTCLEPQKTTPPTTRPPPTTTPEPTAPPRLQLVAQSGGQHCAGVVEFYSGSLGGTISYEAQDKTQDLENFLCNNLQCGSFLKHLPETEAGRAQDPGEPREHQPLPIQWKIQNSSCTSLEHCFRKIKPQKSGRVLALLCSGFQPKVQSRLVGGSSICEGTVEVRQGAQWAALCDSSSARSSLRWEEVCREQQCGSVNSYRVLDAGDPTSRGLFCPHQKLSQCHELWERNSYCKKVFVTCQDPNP
Test: BLI (Octet), IgG loaded on the biosensor, CD5 antigen 400 to 12.5 nM, 1:1 model
Each entry below lists one item and its recorded kon value.
Please reply with the bare figure in M⁻¹ s⁻¹ and do not write the unit itself.

Worked examples follow.
>  <BINDER>
H65 anti-CD5 IgG (antibody, V domains shown) VH: QIQLVQSGPELKKPGETVKISCKASGYTFTNYGMNWVKQAPGKGLRWMGWINTHTGEPTYADDFKGRFAFSLETSASTAYLQINNLKNEDTATYFCTRRGYDWYFDVWGAGTTVTVSS VL: DIKMTQSPSSMYASLGERVTITCKASQDINSYLSWFHHKPGKSPKTLIYRANRLVDGVPSRFSGSGSGQDYSLTISSLDYEDMGIYYCQQYDESPWTFGGGTKLEIK

>  <U>
M⁻¹ s⁻¹

>  <kon>
361000

$$$$
>  <BINDER>
Clone 10 anti-CD5 IgG (antibody, V domains shown) VH: EVQLLESGGGLVKPGGSLRLSCAASGFTFNNYTMNWVRQAPGKGLEWVSSISSSSSYIYYADSVKGRFTISRDNAKNSLFLQMNSLRGEDTAVYYCARYFSGSAGDYWGQGTLVTVSS VL: QSVVTQPPSVSGAPGQRVTISCTGSSSNIGAGYDVHWYQQLPGTAPKLLIYGNINRPSGVPDRFSGSKSGTSASLAITGLQAEDEADYYCGTWDNSLSAHYVFGTGTKVTVLG

>  <U>
M⁻¹ s⁻¹

>  <kon>
318000

$$$$
>  <BINDER>
Clone 32 anti-CD5 IgG (antibody, V domains shown) VH: QVQLVESGGGLVKPGGSLRLSCAASGFTFSSYSMNWVRQAPGKGLEWVSSISSSSSYIYYADSVKGRFTISRDNAKNSLYLQMNSLRAEDTAVYYCARGNPWYGVDYWGQGTLVTVSS VL: QSVLTQPPSVSAAPGQKVTISCSGSNSNIGNNYVSWYQQLPGTAPKRLIYDNNKRPSGIPDRFSGSKSGTSATLGITGLQTGDEADYYCGIWDSSLDAYVFGTGTKVTVLG

>  <U>
M⁻¹ s⁻¹

>  <kon>
76500

$$$$

Note: attention shifts to another entry.
Which kon is listed for Clone 35 anti-CD5 IgG (antibody, V domains shown, The VH entry as printed begins with MA carried over from the scFv) VH: QVQLVESGGGLVQPGGSLRLSCAASGFTFSSYAMSWVRQTPGKGLEWVSTITDSGDITYYTASVQGRFTISRDNSKNTLYLQMNSLRAEDTAVYYCARMSSHWYFSADYWGQGTLVTVSS VL: QSVLTQPPSVSAAPGQKVTISCSGSSSNIGNNYVSWYQQLPGTAPKLLIYDNNKRPSGIPDRFSGSKSGTSATLGITGLQTGDEADYYCGTWDSSLSAVVFGGGTKLTVLG ?
28100
